B1: CAMK2D (parent)
chain: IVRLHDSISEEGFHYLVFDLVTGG

Variants of: B1
Assay explanation: protein stability index of a GFP-peptide fusion (GPS, HEK-293T) (PSI 1-6); higher = more stable;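 also: lentivirally expressed fusions sorted by FACS into six bins by GFP to DsRed ratio, PSI derived from sequencing read proportions per bin multiplied by bin number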
Experimental conditions: c terminus: a fixed tail appended
Measured protein stability index values are reported for all entries that follow.
Returns: the value as a bare number; no unit string appended.

ILRLHDSISEEGFHYLVFDLVTGG : 2.69
IVRLHDSISEEGFHFLVFDLVTGG : 2.63
IVRLHDSISEENFHYLVFDLVTGG : 2.04

Shifting focus to the variant that follows.
Any idea what its protein stability index is? The variant is IVRLHDSISMEGFHYLVFDLVTGG
2.53
